Target: T1, human B-cell maturation antigen (BCMA) on cells (human, UniProt Q02223 1-184)
T1 construct: Recombinant on HEK293 or K562 cells, or endogenous on cell lines (H929, RPMI 8226, OPM2, MM1S, Daudi); also called hBCMA; huBCMA
T1 chain: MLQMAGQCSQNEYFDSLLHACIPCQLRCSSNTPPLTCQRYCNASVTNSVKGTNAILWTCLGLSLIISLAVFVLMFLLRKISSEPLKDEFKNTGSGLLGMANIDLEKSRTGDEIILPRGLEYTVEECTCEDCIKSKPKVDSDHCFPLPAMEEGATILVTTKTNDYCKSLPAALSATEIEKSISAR
Experiment: flow cytometry on BCMA-expressing HEK293 cells vs control cells, crude lysate or bacterial supernatant; clone listed in Table E2

Binder	binding result
BCMA-1 scFv (scFv) scFv: QVQLVQSGGGLVQPGRSLRLSCTASGFTFGDYAMSWFRQAPGKGLEWVGFIRSKAYGGTTEYAASVKGRFTISRDDSKSIAYLQMNSLKTEDTAVYYCAAWSAPTDYWGQGTLVTVSSGGGGSGGGGSGGGGSDIVMTQSPDSLSVSPGERATISCKSSQSVLSTSNNKNYLAWYQQKPGQPPRLLLYWASTREAGVPDRFSGSGSGTDFTLTISSLQAEDVAVYYCQQYFSSPYTFGHGTKLEIK	binds
BCMA-17 scFv (scFv) scFv: QVQLVQSGGGLVKPGGSLRLSCAASGFTFSDYYMSWIRLAPGKGLEWVSYISSSGSTIYYADSVKGRFTISRDNAKNSLYLQMNSLRAEDTAVYYCAREADSSADYWGQGTLVNVSSGGGGSGGGGSGGGGSQPVLTQPPSVSVAPGKTAMITCGGNNIGFKGVQWYQQKTGQAPVLVVYDDSDRPSGIPERFSGSNSGNTATLTISRVEAGDEADYYCQVWDSASDHWVFGGGTKLTVL	binds
BCMA-37 scFv (scFv) scFv: EVQLVQSGGGLVKPGGSLRLSCAASGFTFSDYYMSWIRQAPGKGLEWVSYISSSGSTIYYADSVKGRFTISRDNAKSSLYLQMNSLRAEDTAVYYCARVDGDYVDDYWGQGTLVTVSSGGGGSGGGGSGGGGSQLVLTQEPSLTVSPGGTVTLTCGSSTGAVTNGHSPYWFQQKPGQAPRTLIYDTTNRHSWTPARFSGSLLGGKAALTLSGAQPEDEAEYYCSLSHAGDRVFFGGGTKLTVL	binds
